- test.target: human SCD5 (Homo sapiens, UniProt Q86SK9)
- Construct: expressed in transfected cells; host or cells: yeast strain with OLE1 deleted, plasmid-borne human SCD5 (selected in SD-Ura)
- Sequence (Q86SK9 whole entry): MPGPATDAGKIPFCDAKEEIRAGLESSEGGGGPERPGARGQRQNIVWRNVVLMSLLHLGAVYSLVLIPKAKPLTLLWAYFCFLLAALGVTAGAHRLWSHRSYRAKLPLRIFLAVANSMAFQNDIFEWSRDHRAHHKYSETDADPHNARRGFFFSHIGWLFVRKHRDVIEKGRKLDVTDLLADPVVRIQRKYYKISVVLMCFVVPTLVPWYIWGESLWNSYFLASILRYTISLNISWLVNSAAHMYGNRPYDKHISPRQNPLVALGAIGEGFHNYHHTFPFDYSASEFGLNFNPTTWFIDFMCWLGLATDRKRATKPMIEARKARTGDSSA
- test.details: Growth inhibition of yeast strain expressing human SCD5 as sole desaturase (OLE1 deleted), OD600 readout
- Type: cell-based
- run.conditions: yeast strain expressing human SCD5 as sole desaturase; growth (OD600) after 40 h at 30° C.; read-out: SCD5 IC50
measurement.name: pIC50
Numbers only, as −log10 of the molar value.

Please review the following examples before continuing.
>  <compound>
N#Cc1nc(C(=O)Nc2ccc(Cc3cccc(F)c3)cn2)cs1 [Compound 640]

>  <test.target>
human SCD5 (Homo sapiens, UniProt Q86SK9)

>  <measured.number>
5.89

$$$$
>  <compound>
O=C(Nc1ccc(COc2cccc(Cl)c2)cn1)c1ccc(CO)nc1 [Compound 292]

>  <test.target>
human SCD5 (Homo sapiens, UniProt Q86SK9)

>  <measured.number>
8.00

$$$$

Report pIC50 for each item below.
1. N#Cc1cnc(C(=O)Nc2ccc(Cc3cc(F)cc(F)c3)cn2)cn1 [Compound 639]
2. Cn1nc(C(=O)Nc2ccc(Cc3cc(C(F)(F)F)ccn3)cn2)ccc1=O [Compound 278]
3. CN1N=C(C(=O)Nc2ccc(COc3ccc(F)c(F)c3)cn2)CCC1=O [Compound 598]
4. O=C(Nc1ccc(Cc2cc(F)cc(Cl)c2)cn1)c1cnc(Cl)cn1 [Compound 659]

Reply |
1. 7.41
2. 5.69
3. 6.82
4. 7.26

Report pIC50 for each item below.
1. Cn1cc(C(=O)Nc2ccc(Cc3ccc(F)c(F)c3Cl)cn2)ccc1=O [Compound 572]
2. CC(C)n1nc(C(=O)Nc2ccc(Cc3cccc(Cl)c3)cn2)ccc1=O [Compound 73]

Reply |
1: 8.00; 2: 6.77

This collection of values is drawn from patent US20230078764A1.
